Hello, the source for this data is ChEMBL document CHEMBL5108027, in case you need it.

MIC values, listed per item
Tested on: Acinetobacter baumannii
test-details: Antibacterial activity against Acinetobacter baumannii measured by Muller-Hinton broth based microdilution assay
Assay type: functional
Write the number in µg/mL without appending the unit.

[
  {
    "smiles-text": "O=C1c2cccc3c(N/N=C/c4ccncc4)ccc(c23)C(=O)N1C(CO)CO",
    "unit-annotation": "µg/mL",
    "MIC": 64
  }
]

Lookup: Recorded MIC of `O=C1c2cccc3c(N/N=C/c4ccc([N+](=O)[O-])cc4)ccc(c23)C(=O)N1C(CO)CO` , please.
Found: 64

Lookup: Query: MIC; subject: `O=C1c2cccc3c(N/N=C/c4ccc(O)c([N+](=O)[O-])c4)ccc(c23)C(=O)N1C(CO)CO`
Found: 32

Lookup: Please give the measured MIC for this compound: `O=C(Cn1cc(/C=N/Nc2ccc3c4c(cccc24)C(=O)N(C(CO)CO)C3=O)c2ccccc21)N1CCOCC1`
Found: 128

Lookup: Which measured MIC value corresponds to `O=C1c2cccc3c(N/N=C/c4nc5ccccc5[nH]4)ccc(c23)C(=O)N1C(CO)CO` ?
Found: 64

----------
System: Staphylococcus aureus
test-details: Antibacterial activity against methicillin-resistant Staphylococcus aureus N315 measured by Muller-Hinton broth based microdilution assay
Format: functional
outcome-measure: MIC
Don't forget the unit after the value.

Answered examples (2):
[
  {
    "smiles-text": "O=C1c2cccc3c(N/N=C/c4ccc(C(F)(F)F)cc4)ccc(c23)C(=O)N1C(CO)CO",
    "MIC": "64 µg/mL"
  },
  {
    "smiles-text": "O=C1c2cccc3c(N/N=C/c4cc(=O)oc5cc(O)ccc45)ccc(c23)C(=O)N1C(CO)CO",
    "MIC": "32 µg/mL"
  }
]

Query compound follows.
Lookup: Could you tell me which MIC is on file for `O=C1c2cccc(O)c2C(=O)c2c(O)cc(/C=N/Nc3ccc4c5c(cccc35)C(=O)N(C(CO)CO)C4=O)cc21` ?
Found: 64 µg/mL

----------
Each entry below lists one item and its recorded hemolysis at 1 h value.
test-details: Hemolytic activity in human RBC assessed as hemolytic rate at 2 to 512 ug/ml and measured after 1 hr
Format: toxicity, cell-based, Erythrocyte
condition: human red blood cells (erythrocytes), at 2 to 512 µg/mL, dose 2-512 µg/ml, read-out: Activity

[
  {
    "smiles-text": "CCn1c2ccccc2c2cc(/C=N/Nc3ccc4c5c(cccc35)C(=O)N(C(CO)CO)C4=O)ccc21",
    "outcome-measure": "hemolysis at 1 h",
    "measured-value": "< 5%"
  }
]

Lookup: Fill in: hemolysis at 1 h of `COc1ccc(/C=N/Nc2ccc3c4c(cccc24)C(=O)N(C(CO)CO)C3=O)cc1` is ___
Found: < 5%

Lookup: So what's the measured hemolysis at 1 h for this one? `O=C1c2cccc3c(N/N=C/c4ccc5ccccc5c4)ccc(c23)C(=O)N1C(CO)CO`
Found: < 5%

Lookup: Any idea what its hemolysis at 1 h is? The molecule is `O=C1c2cccc3c(N/N=C/c4cccc(Cl)c4)ccc(c23)C(=O)N1C(CO)CO`
Found: < 5%

Lookup: Looking for the measured hemolysis at 1 h of `CCOC(=O)Cn1cc(/C=N/Nc2ccc3c4c(cccc24)C(=O)N(C(CO)CO)C3=O)c2ccccc21` , can you help?
Found: < 5%
